Experiment notes: Rat PK study #3 (ABBV-744 IV 1 mg/kg and PO 5 mg/kg)
Assay type: in vivo, SD rats
Conditions: male, Sprague-Dawley, rat, plasma, po, 5 mg/kg, SD rats, PO 5 mg/kg, DMSO/PEG-400/Milli-Q water formulation, 0.25 h, mean of 3 animals

Compound	concentration at 0.25 h (ng/mL)
CCNC(=O)c1cc2c(-c3cc(C(C)(C)O)ccc3Oc3c(C)cc(F)cc3C)cn(C)c(=O)c2[nH]1 [ABBV-744]	19.3

====

Experiment notes: UUO study: plasma concentration of Compound A
Assay type: in vivo, rats
Conditions: rat, plasma, po, 10 mg/kg, oral; four hours after final treatment; 10 mg/kg; read-out: Mean plasma concentration
Assay endpoint: concentration at 4 h (ng/mL)

Compound smiles	Assay endpoint	Reading unit	Recorded result
Cn1cc(-c2ccccc2)c(-c2cn(C)c(=O)c3[nH]c(-c4cnn(C(F)(F)F)c4)cc23)cc1=O	concentration at 4 h	ng/mL	201

====

Experiment notes: Dog PK study #1 (Compound A IV and PO, propylene glycol formulation)
Type: in vivo, beagle dogs
Conditions: beagle, dog, plasma; oral 5 mg/kg; individual animals

Compound smiles	Tmax
Cn1cc(-c2ccccc2)c(-c2cn(C)c(=O)c3[nH]c(-c4cnn(C(F)(F)F)c4)cc23)cc1=O	2 h

====

Experiment notes: Rat PK study #4 (Compound A PO 0.2 and 1.0 mg/kg, propylene glycol formulation)
Type: in vivo, Lewis rats
Conditions: male, Lewis, rat, plasma, po, 0.2 mg/kg, 0.2 mg/kg PO, propylene glycol-based formulation; mean

Compound	AUC(0-inf) [ng·h/mL]
Cn1cc(-c2ccccc2)c(-c2cn(C)c(=O)c3[nH]c(-c4cnn(C(F)(F)F)c4)cc23)cc1=O [Compound A]	79

====

Experiment notes: CIA study: pharmacokinetics / plasma concentration after oral administration
Format: in vivo, Lewis rats
Conditions: Lewis, rat, plasma, po, 3 mg/kg, CIA-induced animals, day 0, 3 mg/kg, average; read-out: AUClast (Mean)

Compound	Reading unit	AUC(0-t)
Cn1cc(-c2ccccc2)c(-c2cn(C)c(=O)c3[nH]c(-c4cnn(C(F)(F)F)c4)cc23)cc1=O [Compound A]	ng·h/mL	1530

====

Experiment notes: Dog PK study #4 (Compound A PO daily 14 days, 1/3/10 mg/kg; toxicokinetics, platelet counts)
Format: in vivo, beagle dogs
Conditions: both sexes, beagle, dog, plasma, oral; after daily administration for 14 days, 3 mg/kg, Pooled Mean, 24 h

Compound smiles	Reading unit	concentration at 24 h
Cn1cc(-c2ccccc2)c(-c2cn(C)c(=O)c3[nH]c(-c4cnn(C(F)(F)F)c4)cc23)cc1=O	ng/mL	23.6

====

Experiment notes: CIA study: pharmacokinetics / plasma concentration after oral administration
Format: in vivo, Lewis rats
Conditions: Lewis, rat, plasma, po, 3 mg/kg, CIA-induced animals, day 21, 3 mg/kg, individual test subjects; read-out: AUClast

Compound	AUC(0-t) / ng·h/mL
Cn1cc(-c2ccccc2)c(-c2cn(C)c(=O)c3[nH]c(-c4cnn(C(F)(F)F)c4)cc23)cc1=O [Compound A]	604

====

Experiment notes: Rat PK study #1 (Compound A PO, methylcellulose vs propylene glycol formulation)
Assay type: in vivo, Lewis rats
Conditions: male, Lewis, rat, plasma, po, 10 mg/kg, Lewis rats, PO 10 mg/kg, propylene glycol/Vitamin E TPGS/water formulation, mean of 3 animals
Procedure: For the first rat pharmacokinetic study, the pharmacokinetics of Compound A were assessed in male Lewis rats. […] The Compound A solutions were administered to animals orally (PO) and animals were then monitored over a 24 h period. […] The concentration of Compound A in plasma samples was determined by liquid chromatography-mass spectrometry (LC-MS/MS) using a Shimadzu HPLC (DGU-20A5R; LC-30AD; SIL-30AC; Rack changer II; CTO-31A; and CBM-20A) and an AB API 5500 LC/MS/MS instrument. […]

Compound smiles	Tmax, h
Cn1cc(-c2ccccc2)c(-c2cn(C)c(=O)c3[nH]c(-c4cnn(C(F)(F)F)c4)cc23)cc1=O	3.33
